Below, each entry is listed alongside its reported stoichiometry N.
- tgt: the molecule itself
- experiment: SEC; Superose 6 Increase 10/300 GL; 50 mM Tris-HCl (pH 8.0), 300 mM NaCl, 10 mM MgCl2; oligomeric state calculated from elution volumes of proteins of known size

protein	stoichiometry N
KpUGP F276A (enzyme, UDP-glucose pyrophosphorylase (galU gene product) of K. pneumoniae DSM 30104; mutant of Strep-KpUGP; tag as in m1; no cleavage described) MAALNSKVRKAVIPVAGLGTRMLPATKAIPKEMLPLVDKPLIQYVVNECIAAGITEIVLVTHSSKNSIENHFDTSFELEAMLEKRVKRQLLEEVQSICPPHVTIMQVRQGLAKGLGHAVLCAHPVVGDEPVAVILPDVILDEYESDLSRDNLAEMISRFDETGASQIMVEPVEDVTAYGVVDCKGESLKPGESVPMVGVVEKPKADVAPSNLAVVGRYVLSADIWPLLAKTPPGAGDEIQLTDAIDMLIEKETVEAYHMKGKSHDCGNKLGYMQAAVEYGIRHKTLGDDFKAWLETAVAK	4.6
KpUGP E77Q (enzyme, UDP-glucose pyrophosphorylase (galU gene product) of K. pneumoniae DSM 30104; mutant of Strep-KpUGP; tag as in m1; no cleavage described) MAALNSKVRKAVIPVAGLGTRMLPATKAIPKEMLPLVDKPLIQYVVNECIAAGITEIVLVTHSSKNSIENHFDTSFQLEAMLEKRVKRQLLEEVQSICPPHVTIMQVRQGLAKGLGHAVLCAHPVVGDEPVAVILPDVILDEYESDLSRDNLAEMISRFDETGASQIMVEPVEDVTAYGVVDCKGESLKPGESVPMVGVVEKPKADVAPSNLAVVGRYVLSADIWPLLAKTPPGAGDEIQLTDAIDMLIEKETVEAYHMKGKSHDCGNKLGYMQAFVEYGIRHKTLGDDFKAWLETAVAK	4.6
KpUGP E77A (enzyme, UDP-glucose pyrophosphorylase (galU gene product) of K. pneumoniae DSM 30104; mutant of Strep-KpUGP; tag as in m1; no cleavage described) MAALNSKVRKAVIPVAGLGTRMLPATKAIPKEMLPLVDKPLIQYVVNECIAAGITEIVLVTHSSKNSIENHFDTSFALEAMLEKRVKRQLLEEVQSICPPHVTIMQVRQGLAKGLGHAVLCAHPVVGDEPVAVILPDVILDEYESDLSRDNLAEMISRFDETGASQIMVEPVEDVTAYGVVDCKGESLKPGESVPMVGVVEKPKADVAPSNLAVVGRYVLSADIWPLLAKTPPGAGDEIQLTDAIDMLIEKETVEAYHMKGKSHDCGNKLGYMQAFVEYGIRHKTLGDDFKAWLETAVAK	4.5
KpUGP F276H (enzyme, UDP-glucose pyrophosphorylase (galU gene product) of K. pneumoniae DSM 30104; mutant of Strep-KpUGP; tag as in m1; no cleavage described) MAALNSKVRKAVIPVAGLGTRMLPATKAIPKEMLPLVDKPLIQYVVNECIAAGITEIVLVTHSSKNSIENHFDTSFELEAMLEKRVKRQLLEEVQSICPPHVTIMQVRQGLAKGLGHAVLCAHPVVGDEPVAVILPDVILDEYESDLSRDNLAEMISRFDETGASQIMVEPVEDVTAYGVVDCKGESLKPGESVPMVGVVEKPKADVAPSNLAVVGRYVLSADIWPLLAKTPPGAGDEIQLTDAIDMLIEKETVEAYHMKGKSHDCGNKLGYMQAHVEYGIRHKTLGDDFKAWLETAVAK	4.5
